B1: P2RY14 (parent)
chain: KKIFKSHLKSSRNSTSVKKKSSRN

Variants of: B1
Test: protein stability index of a GFP-peptide fusion (GPS, HEK-293T) (PSI 1-6); higher = more stable;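 also: lentivirally expressed fusions sorted by FACS into six bins by GFP to DsRed ratio, PSI derived from sequencing read proportions per bin multiplied by bin number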
Settings: c terminus: a fixed tail appended
Param threshold (4) applies to protein stability index; output Satisfied when value >= threshold, Not satisfied when value < threshold.

Input line: Given the entry K9S , answer whether its protein stability index meets or surpasses 4.
Output line: Not satisfied

Input line: Given the entry R23P , answer whether its protein stability index meets or surpasses 4.
Output line: Not satisfied

Input line: Given the entry S16E , answer whether its protein stability index meets or surpasses 4.
Output line: Satisfied

Input line: Given the entry K1M , answer whether its protein stability index meets or surpasses 4.
Output line: Not satisfied

Input line: Given the entry K2W , answer whether its protein stability index meets or surpasses 4.
Output line: Not satisfied

Input line: Given the entry S22W , answer whether its protein stability index meets or surpasses 4.
Output line: Not satisfied

Input line: Given the entry K5L , answer whether its protein stability index meets or surpasses 4.
Output line: Not satisfied

Input line: Given the entry S11P , answer whether its protein stability index meets or surpasses 4.
Output line: Satisfied

Input line: Given the entry S21W , answer whether its protein stability index meets or surpasses 4.
Output line: Not satisfied
